Geometric Mean : FL6-A: recorded values
molecular target: T1, human MUC1 on cells (DA3-TM transfectants and human cancer cell lines SKOV3, COLO357, HT29 and others) (human, UniProt P15941 24-1255); test: flow cytometry on DA3-TM cells; table row 3 of 5, about 3.7 nM by the matching point in FIG. 3A
T1 construct: also called MUC1-SEA; surface MUC1
T1 sequence (P15941 24-1255 limits assumed): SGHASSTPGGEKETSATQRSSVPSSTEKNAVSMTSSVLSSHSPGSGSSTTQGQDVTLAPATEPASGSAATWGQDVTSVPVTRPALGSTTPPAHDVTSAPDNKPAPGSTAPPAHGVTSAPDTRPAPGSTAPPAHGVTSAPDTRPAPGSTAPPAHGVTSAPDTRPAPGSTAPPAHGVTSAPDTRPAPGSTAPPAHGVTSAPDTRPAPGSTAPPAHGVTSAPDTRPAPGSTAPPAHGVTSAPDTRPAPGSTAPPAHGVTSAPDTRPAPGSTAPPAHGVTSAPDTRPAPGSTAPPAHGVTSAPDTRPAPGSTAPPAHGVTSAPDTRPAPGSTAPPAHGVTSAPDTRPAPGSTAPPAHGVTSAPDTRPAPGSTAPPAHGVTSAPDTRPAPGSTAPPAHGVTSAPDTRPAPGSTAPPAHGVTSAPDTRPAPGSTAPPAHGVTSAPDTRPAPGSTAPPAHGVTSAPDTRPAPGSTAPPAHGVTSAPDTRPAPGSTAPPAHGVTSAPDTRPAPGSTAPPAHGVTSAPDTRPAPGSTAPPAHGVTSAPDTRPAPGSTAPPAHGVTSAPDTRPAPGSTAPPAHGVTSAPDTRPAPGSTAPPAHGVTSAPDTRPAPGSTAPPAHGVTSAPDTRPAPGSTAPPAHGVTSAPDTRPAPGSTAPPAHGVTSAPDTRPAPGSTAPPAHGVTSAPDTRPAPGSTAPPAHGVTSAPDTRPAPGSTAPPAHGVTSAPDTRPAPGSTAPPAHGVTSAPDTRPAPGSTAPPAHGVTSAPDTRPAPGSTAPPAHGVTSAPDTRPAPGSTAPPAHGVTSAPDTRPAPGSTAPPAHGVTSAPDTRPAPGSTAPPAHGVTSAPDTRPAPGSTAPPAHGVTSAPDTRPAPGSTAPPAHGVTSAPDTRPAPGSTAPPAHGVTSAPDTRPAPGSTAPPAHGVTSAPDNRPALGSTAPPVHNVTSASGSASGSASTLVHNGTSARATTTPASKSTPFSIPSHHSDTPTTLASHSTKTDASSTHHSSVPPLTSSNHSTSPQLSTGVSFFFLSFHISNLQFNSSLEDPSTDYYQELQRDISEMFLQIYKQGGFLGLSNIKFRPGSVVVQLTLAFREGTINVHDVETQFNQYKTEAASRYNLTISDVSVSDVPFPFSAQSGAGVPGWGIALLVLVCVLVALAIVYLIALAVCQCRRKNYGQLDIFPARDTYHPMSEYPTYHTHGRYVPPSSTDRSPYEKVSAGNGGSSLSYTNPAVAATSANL
Output spec: single numeric token, no unit.

- binder: "HM2 LM2 variant of humanized anti-MUC1 antibody SP66 (antibody, V domains shown, Humanized IgG expressed in CHO cells; only variable domains tied to the variant) VH: EIQLVQSGAEVKKPGSSVKVSCKVTGHSITRGSSWHWMRQAPGQGLEWIGYIHYGGGTSYNPSLKSRITITRDTSTNTAYMELSSLRSEDTAFYFCARYSYDITYRWFFDVWGQGTLVTVSS VL: DIQMTQSPSTLSASVGDRVTITCRASQNIGTSIHWYQQKPGKAPKLLIKRASESISGVPSRFSGSGSGTEFTLTISSLQPDDFATYYCQQNNNWPLTFGQGTKVEVK"
  metric: "Geometric Mean : FL6-A"
  test.result: 11800
- binder: "HM2 LM1 variant of humanized anti-MUC1 antibody SP66 (antibody, V domains shown, Humanized IgG expressed in CHO cells; only variable domains tied to the variant) VH: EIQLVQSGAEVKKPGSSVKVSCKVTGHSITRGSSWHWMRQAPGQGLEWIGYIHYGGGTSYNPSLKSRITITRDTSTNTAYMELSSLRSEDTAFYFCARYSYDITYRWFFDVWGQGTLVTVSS VL: DIQMTQSPSTLSASVGDRVTITCRASQNIGTSIHWFQQKPGKAPKLLIKRASESISGVPSRFSGSGSGTEFTLTISSLQPDDFATYYCQQNNNWPLTFGQGTKVEVK"
  metric: "Geometric Mean : FL6-A"
  test.result: 4900

Consider the additional binder presented here.
INPUT: Give its Geometric Mean : FL6-A value. Item: HM4 LM3 variant of humanized anti-MUC1 antibody SP66 (antibody, V domains shown, Humanized IgG expressed in CHO cells; only variable domains tied to the variant) VH: EIQLVQSGAEVKKPGSSVKVSCKVTGHSITRGSSWHWMRQAPGQGLEWIGYIHYGGGTSYNPSLKSRATLTRDTSTNTFYMELSSLRSEDTAFYFCARYSYDITYRWFFDVWGQGTLVTVSS VL: DIQMTQSPSTLSASVGDRVTITCRASQNIGTSIHWYQQKPGKAPKLLIKYASESISGVPSRFSGSGSGTEFTLTISSLQPDDFATYYCQQNNNWPLTFGQGTKVEVK
OUTPUT: 17600
